molecular target: DNA polymerase beta (Homo sapiens, UniProt P06746)

| smiles.representation | IC50 |
| --- | --- |
| COC(=O)N(CC(=O)O)C(=O)c1c(Cl)ccc2c(C(F)(F)F)c(OC)ccc12 | > 100 µM |

* * *

target: RNA-directed RNA polymerase (Hepacivirus hominis, UniProt O39930)
Sequence (O39930 whole entry): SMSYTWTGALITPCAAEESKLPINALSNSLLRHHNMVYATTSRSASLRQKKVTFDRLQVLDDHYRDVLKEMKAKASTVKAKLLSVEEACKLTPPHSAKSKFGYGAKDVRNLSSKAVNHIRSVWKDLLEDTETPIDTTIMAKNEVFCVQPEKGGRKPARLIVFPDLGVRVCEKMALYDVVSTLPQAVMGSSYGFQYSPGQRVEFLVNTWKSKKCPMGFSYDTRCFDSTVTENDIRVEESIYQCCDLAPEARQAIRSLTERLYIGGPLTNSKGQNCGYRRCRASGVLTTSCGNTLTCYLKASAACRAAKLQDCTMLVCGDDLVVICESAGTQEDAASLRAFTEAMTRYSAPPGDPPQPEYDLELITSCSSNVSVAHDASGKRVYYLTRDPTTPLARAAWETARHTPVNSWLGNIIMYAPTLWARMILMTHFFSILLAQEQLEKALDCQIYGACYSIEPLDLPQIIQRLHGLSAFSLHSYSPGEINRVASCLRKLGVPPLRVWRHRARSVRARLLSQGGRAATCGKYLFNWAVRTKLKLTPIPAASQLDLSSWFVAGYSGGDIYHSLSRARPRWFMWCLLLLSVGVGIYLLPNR
pIC50: −log10 of the molar value.

| compound | assayed.target | limit.sign | pIC50 |
| --- | --- | --- | --- |
| COc1ccc2c(C(=O)NC(CC(=O)O)C(=O)O)cccc2c1Br (stereo not drawn) | RNA-directed RNA polymerase (Hepacivirus hominis, UniProt O39930) | = | 5.92 |
| COC(=O)N(CC(=O)O)C(=O)c1c(-c2ccc(Cl)cc2)ccc2c(C(F)(F)F)c(OC)ccc12 | RNA-directed RNA polymerase (Hepacivirus hominis, UniProt O39930) | < | 4.70 |
| COc1ccc2ccccc2c1C(=O)NC(CC(=O)O)C(=O)O (stereo not drawn) | RNA-directed RNA polymerase (Hepacivirus hominis, UniProt O39930) | < | 5.00 |
| COc1ccc2c(C(=O)NC(CCC(=O)O)C(=O)O)cccc2c1Br (stereo not drawn) | RNA-directed RNA polymerase (Hepacivirus hominis, UniProt O39930) | = | 6.23 |
| COc1ccc2c(C(=O)N(C)CC(=O)O)c(Br)ccc2c1C(F)(F)F | RNA-directed RNA polymerase (Hepacivirus hominis, UniProt O39930) | = | 5.70 |
| CCOC(=O)N(CC(=O)O)C(=O)c1c(Br)ccc2c(C(F)(F)F)c(OC)ccc12 | RNA-directed RNA polymerase (Hepacivirus hominis, UniProt O39930) | = | 5.51 |
| COc1ccc2c(C(=O)N(CC(=O)O)C(=O)OCC(C)C)c(Br)ccc2c1C(F)(F)F | RNA-directed RNA polymerase (Hepacivirus hominis, UniProt O39930) | = | 5.11 |
| COC(=O)N(CCC(=O)O)C(=O)c1c(Br)ccc2c(C(F)(F)F)c(OC)ccc12 | RNA-directed RNA polymerase (Hepacivirus hominis, UniProt O39930) | < | 5.00 |

* * *

pIC50: −log10 of the molar value.
List of pIC50 tested on RNA-directed RNA polymerase (Hepacivirus hominis, UniProt O39930).

| compound | assayed.target | limit.sign | pIC50 |
| --- | --- | --- | --- |
| COC(=O)N(CC(=O)O)C(=O)c1c(Br)ccc2c(C(F)(F)F)c(OC)ccc12 | RNA-directed RNA polymerase (Hepacivirus hominis, UniProt O39930) | = | 5.85 |
| COc1ccc2c(C(=O)NC(CC(=O)O)C(=O)O)c(F)ccc2c1C(F)(F)F (centres undefined) | RNA-directed RNA polymerase (Hepacivirus hominis, UniProt O39930) | = | 5.68 |
| COc1ccc2c(C(=O)N(CC(=O)O)C(=O)OCC(C)(C)C)c(Br)ccc2c1C(F)(F)F | RNA-directed RNA polymerase (Hepacivirus hominis, UniProt O39930) | = | 5.19 |
| COc1ccc2c(C(=O)N(CC(=O)O)CC(=O)O)cccc2c1C(F)(F)F | RNA-directed RNA polymerase (Hepacivirus hominis, UniProt O39930) | = | 6.05 |
| COc1ccc2c(C(=O)NC(CC(=O)O)C(=O)O)c(Br)ccc2c1C(F)(F)F (centres undefined) | RNA-directed RNA polymerase (Hepacivirus hominis, UniProt O39930) | = | 6.04 |
| COC(=O)N(CC(=O)O)C(=O)c1cccc2c(C(F)(F)F)c(OC)ccc12 | RNA-directed RNA polymerase (Hepacivirus hominis, UniProt O39930) | < | 4.59 |
| C=CCOC(=O)N(CC(=O)O)C(=O)c1c(Br)ccc2c(C(F)(F)F)c(OC)ccc12 | RNA-directed RNA polymerase (Hepacivirus hominis, UniProt O39930) | = | 5.48 |
| C#CCOC(=O)N(CC(=O)O)C(=O)c1c(Br)ccc2c(C(F)(F)F)c(OC)ccc12 | RNA-directed RNA polymerase (Hepacivirus hominis, UniProt O39930) | = | 5.54 |
| COc1ccc2c(C(=O)NC(CCC(=O)O)C(=O)O)c(F)ccc2c1C(F)(F)F (centres undefined) | RNA-directed RNA polymerase (Hepacivirus hominis, UniProt O39930) | = | 5.85 |
